Please respond with reported Δ RFU in non-transformed cells for every item in the list.
# Tested on: non-transformed cells
# procedure_details: Test 9: TRPA1 activity test, non-transformed cells
# Assay type: cell-based, human
# condition: maximum values, average ± standard deviation; concentration after adding per Table 7 (10.2-28.2 ppm)
Please reply with the value in numeric form only.

Record request: Δ RFU in non-transformed cells value, item CCCCCCCOC(C)=O [Example 16, Heptyl acetate]
0.0

Record request: Δ RFU in non-transformed cells value, item CCCCCCCC(=O)OC [Example 27, Methyl caprylate]
0.1

Record request: Δ RFU in non-transformed cells value, item CCOC(=O)CC [Comparative Example 12, Ethyl propionate, reference compound]
0.3
